Where do the numbers come from? From paper PMC6135609.

# target: PARP1 WT (human, UniProt P09874 1-1014)
# Sequence (P09874 whole entry): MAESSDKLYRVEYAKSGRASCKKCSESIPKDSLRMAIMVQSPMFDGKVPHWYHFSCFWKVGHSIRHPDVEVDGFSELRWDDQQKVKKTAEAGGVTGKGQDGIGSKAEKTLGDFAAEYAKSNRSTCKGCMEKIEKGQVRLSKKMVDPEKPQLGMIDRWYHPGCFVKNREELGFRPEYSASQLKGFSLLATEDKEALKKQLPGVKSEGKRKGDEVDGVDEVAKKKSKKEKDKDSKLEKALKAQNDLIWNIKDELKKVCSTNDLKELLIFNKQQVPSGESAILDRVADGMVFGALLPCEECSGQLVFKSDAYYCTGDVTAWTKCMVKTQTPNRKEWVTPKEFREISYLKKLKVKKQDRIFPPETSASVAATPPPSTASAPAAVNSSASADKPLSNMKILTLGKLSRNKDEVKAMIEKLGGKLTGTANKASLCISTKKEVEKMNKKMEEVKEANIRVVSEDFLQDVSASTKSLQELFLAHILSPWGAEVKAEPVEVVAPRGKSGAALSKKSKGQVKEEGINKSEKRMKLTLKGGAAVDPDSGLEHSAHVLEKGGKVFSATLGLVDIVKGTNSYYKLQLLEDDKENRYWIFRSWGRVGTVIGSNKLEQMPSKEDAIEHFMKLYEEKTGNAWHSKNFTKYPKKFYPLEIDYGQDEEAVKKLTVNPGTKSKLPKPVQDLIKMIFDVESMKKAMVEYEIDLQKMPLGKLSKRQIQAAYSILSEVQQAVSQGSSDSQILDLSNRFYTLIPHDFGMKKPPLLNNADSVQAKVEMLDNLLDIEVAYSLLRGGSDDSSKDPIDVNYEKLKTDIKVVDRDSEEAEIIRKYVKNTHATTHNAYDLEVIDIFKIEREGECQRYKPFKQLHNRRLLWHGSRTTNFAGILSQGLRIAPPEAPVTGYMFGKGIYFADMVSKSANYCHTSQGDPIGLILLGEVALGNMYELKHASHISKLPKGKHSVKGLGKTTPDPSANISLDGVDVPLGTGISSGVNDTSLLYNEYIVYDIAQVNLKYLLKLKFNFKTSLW
# assay: stopped-flow fluorescence anisotropy; kinetic Kd; k1 3.1 nM-1 s-1, k-1 <10 s-1; 50 mM Tris-HCl pH 7.5, 50 mM NaCl, 1 mM MgCl2, 0.1 mM EDTA, 0.01% IGEPAL, 20 C
# experimental.parameters: protein: recombinant; (Ni-NTA; pET28a); blunt
pKd: −log10 of the molar value.
observation.type: pKd

Prompt line: pKd for p18mer* (labeled DSB model) (dsDNA, 5'-phosphate) DNA 1: GGGTTGCGGCCGCTTGGG DNA 2: CCCAAGCGGCCGCAACCC ?
Response line: > 8.52
